# testSystem: GST-Ubr-box of Ubr2 (Homo sapiens (Human), UniProt Q8IWV8)
# Sequence (Q8IWV8 other isoform, or with tags, fused parts or gaps): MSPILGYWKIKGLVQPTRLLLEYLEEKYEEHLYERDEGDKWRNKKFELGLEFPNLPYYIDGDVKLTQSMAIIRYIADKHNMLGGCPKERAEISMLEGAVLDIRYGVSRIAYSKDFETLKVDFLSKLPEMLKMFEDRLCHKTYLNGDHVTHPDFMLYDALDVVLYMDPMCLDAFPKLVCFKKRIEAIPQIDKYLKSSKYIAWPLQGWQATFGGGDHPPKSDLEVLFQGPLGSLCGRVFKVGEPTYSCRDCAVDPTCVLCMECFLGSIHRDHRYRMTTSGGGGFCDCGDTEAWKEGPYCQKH
pKi: −log10 of the molar value. Non-standard residues stand in square brackets, D forms with d. Residues, ends and D or L forms follow the SMILES beside them. ξ: configuration not given here. Tyr(3-NO2) = N[C@@H](Cc1ccc(O)c([N+](=O)[O-])c1)C(=O)O; Tyr(3-F) = N[C@@H](Cc1ccc(O)c(F)c1)C(=O)O; Arg(Me2a) = CN(C)C(=N)NCCC[C@H](N)C(=O)O; Phe(4-NH2) = Nc1ccc(C[C@H](N)C(=O)O)cc1; Ile(3ξ) = CCC(C)[C@H](N)C(=O)O

compound	pKi
CNC(=N)N(C)CCC[C@H](N)C(=O)N[C@@H](Cc1ccc(O)c([N+](=O)[O-])c1)C(=O)N[C@@H](Cc1ccccc1)C(N)=O [Compound 11]	5.00 to 6.00
CN(C)C(=N)NCCC[C@H](N)C(=O)N[C@@H](Cc1ccc(O)c([N+](=O)[O-])c1)C(=O)N[C@@H](Cc1ccccc1)C(N)=O [Compound 19] (H-[Arg(Me2a)]-[Tyr(3-NO2)]-Phe-NH2)	> 6.00
CCC(C)[C@H](NC(=O)[C@@H](N)Cc1ccc(NC(C)=O)cc1)C(=O)N[C@@H](Cc1ccccc1)C(N)=O (stereo partly drawn) [Compound 24] (H-[Phe(4-NH2)](Ac)-[Ile(3ξ)]-Phe-NH2)	4.00 to 5.00
CC[C@H](C)[C@H](NC(=O)[C@@H](N)CCONC(=N)N)C(=O)N[C@@H](Cc1ccccc1)C(N)=O	4.00 to 5.00
CCC(C)C(NC(=O)[C@@H](N)CCCNC(=N)N)C(=O)N[C@@H](Cc1ccccc1)C(N)=O (stereo partly drawn)	5.00 to 6.00
CN(C)C(=N)NCCC[C@H](N)C(=O)N[C@@H](Cc1ccc(O)c(F)c1)C(=O)N[C@@H](Cc1ccccc1)C(N)=O [Compound 28] (H-[Arg(Me2a)]-[Tyr(3-F)]-Phe-NH2)	5.00 to 6.00

====

# testSystem: UniProt:Q8IWV8
pKi: −log10 of the molar value. Non-standard residues stand in square brackets, D forms with d. Residues, ends and D or L forms follow the SMILES beside them. Tyr(3-NO2) = N[C@@H](Cc1ccc(O)c([N+](=O)[O-])c1)C(=O)O; 4Pal = N[C@@H](Cc1ccncc1)C(=O)O
assayMetric: pKi

> print(dat)
                                   compound  reportedmeasurement
1  CCNC(=N)N(CC)CCC[C@H](N)C(=O)N[C@H](C(=O)N[C@@H](Cc1ccccc1)C(N)=O)[C@@H](C)CC         4.00 to 5.00
2  NC(=O)[C@H](Cc1ccccc1)NC(=O)[C@@H](N)Cc1ccc(O)c([N+](=O)[O-])c1 [Compound 18] (H-[Tyr(3-NO2)]-Phe-NH2)               < 4.00
3  N=C(N)NCCC[C@H](N)C(=O)N[C@@H](Cc1ccc(O)c([N+](=O)[O-])c1)C(=O)N[C@@H](Cc1ccccc1)C(N)=O         5.00 to 6.00
4  CC[C@H](C)[C@H](NC(=O)[C@@H](N)CCCN(C)C(=N)NC)C(=O)N[C@@H](Cc1ccccc1)C(N)=O               < 4.00
5  CC[C@H](C)[C@H](NC(=O)[C@H](Cc1ccccc1)NC(=O)[C@@H](N)Cc1ccncc1)C(N)=O [Compound 22] (H-[4Pal]-Phe-Ile-NH2)               < 4.00
6  CC[C@H](C)[C@H](NC(=O)[C@@H](N)Cc1ccncc1)C(=O)N[C@@H](Cc1ccccc1)C(N)=O [Compound 23] (H-[4Pal]-Ile-Phe-NH2)               < 4.00
